# Assay Info: Displacement of [125I]-Ang-2 from AT2 receptor in porcine myometrial membranes after 1.5 hrs
# Assay type: cell membranes, Sus scrofa
pIC50: −log10 of the molar value.
Result Type: pIC50

I: CCCCOC(=O)NS(=O)(=O)c1ccc(CC(C)C)cc1-c1ccc(Cn2cncn2)cc1
II: CCOC(=O)NS(=O)(=O)c1ccc(C)cc1-c1ccc(Cn2cncn2)cc1
III: COc1ccc(S(=O)(=O)NC(=O)OC(C)(C)C)c(-c2ccc(Cn3cncn3)cc2)c1
IV: CCCCC(=O)NS(=O)(=O)c1ccc(C)cc1-c1ccc(Cn2cncn2)cc1
From the items above, give an ordering by pIC50 that starts at the lowest reported number. Labels, requested order.
III, IV, II, I
(III: 6.77, IV: 6.97, II: 7.19, I: 9.40)

* * *

# Assay Info: Displacement of [125I]-Ang-2 from AT2 receptor in porcine myometrial membranes after 1.5 hrs
# Format: cell membranes, Sus scrofa
pIC50: −log10 of the molar value.
Result Type: pIC50

>>> numeric_result("CCCCOC(=O)NS(=O)(=O)c1sc(CC(C)C)cc1-c1ccc(Cn2ccnc2)cc1")
9.40
>>> numeric_result("CCCCOC(=O)NS(=O)(=O)c1ccc(C)cc1-c1ccc(Cn2cncn2)cc1")
7.80
>>> numeric_result("CCOC(=O)NS(=O)(=O)c1ccc(OC)cc1-c1ccc(Cn2cncn2)cc1")
7.44
>>> numeric_result("CCOC(=O)NS(=O)(=O)c1ccc(CC(C)C)cc1-c1ccc(Cn2cncn2)cc1")
8.00
>>> numeric_result("CC(C)Cc1ccc(S(=O)(=O)NC(=O)OC(C)(C)C)c(-c2ccc(Cn3cncn3)cc2)c1")
7.26

P: CCCCC(=O)NS(=O)(=O)c1ccc(OC)cc1-c1ccc(Cn2cncn2)cc1
Q: CCC(=O)NS(=O)(=O)c1ccc(OC)cc1-c1ccc(Cn2cncn2)cc1
R: Cc1ccc(S(=O)(=O)NC(=O)OC(C)(C)C)c(-c2ccc(Cn3cncn3)cc2)c1
S: Cc1cc(Cn2cnc3c2C[C@@H](C(=O)O)N(C(=O)C(c2ccccc2)c2ccccc2)C3)ccc1N(C)C
Please give the order of these compounds when sorted by pIC50, largest value leading. Labels, requested order.
S, P, Q, R

I: CCC(=O)NS(=O)(=O)c1ccc(CC(C)C)cc1-c1ccc(Cn2cncn2)cc1
II: CCOC(=O)NS(=O)(=O)c1ccc(CN(CC)CC)cc1-c1ccc(Cn2cncn2)cc1
I'd appreciate it if you could identify which of I and II has the greater pIC50. Your choice should be expressed through its label.
I

A: CCCCOC(=O)NS(=O)(=O)c1ccc(OC)cc1-c1ccc(Cn2cncn2)cc1
B: CCCCOC(=O)NS(=O)(=O)c1ccc(CN(CC)CC)cc1-c1ccc(Cn2cncn2)cc1
I'd appreciate it if you could identify which of A and B has the greater pIC50. Your choice should be expressed through its label.
A

* * *

# Assay Info: Displacement of [125I]-Ang-2 from AT2 receptor in porcine myometrial membranes after 1.5 hrs
# Format: cell membranes, Sus scrofa
pIC50: −log10 of the molar value.
Catalogue of pIC50 readings, one per entry.

>>> result("Cc1ccc(S(=O)(=O)NC(=O)OCc2ccccc2)c(-c2ccc(Cn3cncn3)cc2)c1")
"< 5.00"

Record request: pIC50 value, item "CCCCOC(=O)NS(=O)(=O)c1ccc(CC(C)C)cc1-c1ccc(N)cc1"
< 5.00

Record request: pIC50 value, item "CCN(CC)Cc1ccc(S(=O)(=O)NC(=O)OCc2ccccc2)c(-c2ccc(Cn3cncn3)cc2)c1"
< 5.00
